Hello, the source for this data is ChEMBL document CHEMBL2218924, in case you need it.

study target: MAP kinase-activated protein kinase 3 (Homo sapiens)
setup conditions: at 1 µM
measured parameter: residual activity (%)
Quick note: give the figure in %, leave out the unit.

Example compounds with recorded residual activity:
smiles=COc1ccc(C(=O)Nc2sc3c(c2C(N)=O)CCCC3)cc1OC value_observed=71
smiles=C[C@@H](N)[C@H]1CC[C@H](C(=O)Nc2ccncc2)CC1 value_observed=90

stdin: Dear colleague, please send me the reported residual activity for "Cn1c2ccccc2c2c3c(c4c5ccccc5n(CCC#N)c4c21)CNC3=O" when you can.
stdout: 131

stdin: Name the recorded residual activity of the item "O=C1Cc2c([nH]c3ccc([N+](=O)[O-])cc23)-c2ccccc2N1" in your answer.
stdout: 75

###

study target: Receptor tyrosine-protein kinase erbB-4 (Homo sapiens) (UniProt Q15303)
Sequence (Q15303 whole entry): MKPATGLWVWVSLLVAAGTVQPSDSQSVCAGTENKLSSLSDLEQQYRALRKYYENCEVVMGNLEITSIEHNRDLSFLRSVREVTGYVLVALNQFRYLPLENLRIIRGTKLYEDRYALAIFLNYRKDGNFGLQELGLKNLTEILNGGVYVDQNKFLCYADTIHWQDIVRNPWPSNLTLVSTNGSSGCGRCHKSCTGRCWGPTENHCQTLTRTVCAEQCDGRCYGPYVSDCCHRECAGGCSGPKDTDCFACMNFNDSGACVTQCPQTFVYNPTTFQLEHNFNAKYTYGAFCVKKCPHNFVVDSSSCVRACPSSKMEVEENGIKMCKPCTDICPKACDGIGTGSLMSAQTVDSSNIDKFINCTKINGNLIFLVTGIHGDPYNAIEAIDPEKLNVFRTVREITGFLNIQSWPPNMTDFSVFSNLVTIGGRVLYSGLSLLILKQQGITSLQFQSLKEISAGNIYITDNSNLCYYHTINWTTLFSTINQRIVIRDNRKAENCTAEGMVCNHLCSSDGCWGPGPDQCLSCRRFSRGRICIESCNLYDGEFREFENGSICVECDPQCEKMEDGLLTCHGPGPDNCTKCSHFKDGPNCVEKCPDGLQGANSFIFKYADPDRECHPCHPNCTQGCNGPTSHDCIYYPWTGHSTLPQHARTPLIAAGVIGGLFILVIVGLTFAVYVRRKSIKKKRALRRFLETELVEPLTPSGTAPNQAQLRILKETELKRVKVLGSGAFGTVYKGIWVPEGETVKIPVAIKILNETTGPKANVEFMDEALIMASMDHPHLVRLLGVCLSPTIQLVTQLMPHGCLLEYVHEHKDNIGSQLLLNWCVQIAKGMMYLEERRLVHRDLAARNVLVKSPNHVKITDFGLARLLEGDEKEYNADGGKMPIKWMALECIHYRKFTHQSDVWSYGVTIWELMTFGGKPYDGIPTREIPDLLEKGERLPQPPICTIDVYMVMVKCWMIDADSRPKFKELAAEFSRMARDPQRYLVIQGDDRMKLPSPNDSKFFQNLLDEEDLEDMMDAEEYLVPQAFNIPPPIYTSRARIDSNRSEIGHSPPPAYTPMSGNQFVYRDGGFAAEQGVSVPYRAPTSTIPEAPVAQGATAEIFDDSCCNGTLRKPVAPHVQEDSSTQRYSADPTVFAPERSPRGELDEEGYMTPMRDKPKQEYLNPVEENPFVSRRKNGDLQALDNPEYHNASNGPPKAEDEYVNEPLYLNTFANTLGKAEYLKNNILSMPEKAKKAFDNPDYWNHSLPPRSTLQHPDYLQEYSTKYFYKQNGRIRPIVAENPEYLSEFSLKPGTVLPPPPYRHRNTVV
setup conditions: at 1 µM
Recorded residual activity, one value per entry.
The answer is to be given in %; state only the numeric part.

Take a look at these entries with their results.
molecule=O=C1Nc2ccc3ncsc3c2/C1=C/c1c[nH]cn1 value_observed=88
molecule=O=[N+]([O-])/C=C/c1ccc2c(c1)OCO2 value_observed=86
molecule=N/C(=N\[N+](=O)[O-])N/N=C\c1ccc(-c2cccc([N+](=O)[O-])c2)o1 value_observed=100
molecule=COc1ccc2c(c[n+](C)c3c4cc5c(cc4ccc23)OCO5)c1OC value_observed=96
molecule=CCn1cnc2c(Nc3cccc(Cl)c3)nc(N[C@@H]3CCCC[C@@H]3N)nc21 value_observed=83
molecule="C[S+]([O-])c1ccc(-c2nc(-c3ccc(F)cc3)c(-c3ccncc3)[nH]2)cc1 (stereo not drawn)" value_observed=115
molecule=O=c1[nH]c2ccccc2n1C1CCN(Cc2ccc(-c3nc4cc5[nH]cnc5cc4nc3-c3ccccc3)cc2)CC1 value_observed=99

Moving on to the next molecule.
stdin: Give reported residual activity value for "O=C1c2ccccc2-c2nc3nnnn3nc21"
stdout: 106

###

study target: Tyrosine-protein kinase HCK (Homo sapiens) (UniProt P08631)
Sequence (P08631 2-526 limits assumed): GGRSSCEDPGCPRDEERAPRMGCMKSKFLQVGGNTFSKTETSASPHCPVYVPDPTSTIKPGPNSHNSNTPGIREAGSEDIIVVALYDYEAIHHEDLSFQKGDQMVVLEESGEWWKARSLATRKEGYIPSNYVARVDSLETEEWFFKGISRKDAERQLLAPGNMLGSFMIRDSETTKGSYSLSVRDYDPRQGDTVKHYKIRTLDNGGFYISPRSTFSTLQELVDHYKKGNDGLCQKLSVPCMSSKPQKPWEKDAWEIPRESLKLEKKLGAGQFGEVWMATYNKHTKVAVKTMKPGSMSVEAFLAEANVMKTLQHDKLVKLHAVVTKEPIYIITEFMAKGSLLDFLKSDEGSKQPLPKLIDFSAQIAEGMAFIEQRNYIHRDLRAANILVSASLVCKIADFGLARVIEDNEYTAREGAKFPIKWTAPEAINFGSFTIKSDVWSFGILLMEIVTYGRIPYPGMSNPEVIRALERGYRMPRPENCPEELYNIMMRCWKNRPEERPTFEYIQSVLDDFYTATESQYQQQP
setup conditions: at 10 µM
residual activity values, listed per item

Look over these answered cases.
compound=O=C1NC(=O)c2c1c1c3ccccc3n3c1c1c2c2ccccc2n1C1CCC3O1 value_observed=83%
compound=O=c1[nH]c2ccccc2n1C1CCN(Cc2ccc(-c3nc4cc5[nH]cnc5cc4nc3-c3ccccc3)cc2)CC1 value_observed=91%
compound=COc1cc2ncnc(Nc3ccc(OCc4ccccc4)cc3)c2cc1OC value_observed=83%

stdin: Specify the recorded residual activity for "COC(=O)[C@@]1(O)C[C@H]2O[C@]1(C)n1c3ccccc3c3c4c(c5c6ccccc6n2c5c31)C(=O)NC4" , system: Tyrosine-protein kinase HCK (Homo sapiens) (UniProt P08631).
stdout: 4%

stdin: State residual activity on Tyrosine-protein kinase HCK (Homo sapiens) (UniProt P08631). Entry: "CCn1cnc2c(Nc3cccc(Cl)c3)nc(N[C@@H]3CCCC[C@@H]3N)nc21"
stdout: 4%

stdin: Look up and report measured residual activity (Tyrosine-protein kinase HCK (Homo sapiens) (UniProt P08631)) for the following compound: "CCc1nc(-c2ccc(OC)cc2)[nH]c1-c1ccncc1"
stdout: 104%

stdin: Quote residual activity with test system Tyrosine-protein kinase HCK (Homo sapiens) (UniProt P08631) for "O=C1Nc2ccc3ncsc3c2/C1=C/c1c[nH]cn1"
stdout: 24%

stdin: # lookup: Tyrosine-protein kinase HCK (Homo sapiens) (UniProt P08631) residual activity, key = "COc1ccc2c(c1)/C(=C/c1cnc[nH]1)C(=O)N2"
stdout: 49%

stdin: Report measured residual activity on Tyrosine-protein kinase HCK (Homo sapiens) (UniProt P08631); entry: C[S+]([O-])c1ccc(-c2nc(-c3ccc(F)cc3)c(-c3ccncc3)[nH]2)cc1 (stereo not given)
stdout: 61%

stdin: Report value: residual activity, system: Tyrosine-protein kinase HCK (Homo sapiens) (UniProt P08631), compound: "CC(C)[C@H](CO)Nc1nc(Nc2cccc(Cl)c2)c2ncn(C(C)C)c2n1"
stdout: 4%
